FYI, the data here is from PubChem BioAssay (NCATS).

target: Cytochrome P450 2C19 (Homo sapiens); test: qHTS Assay for Inhibitors and Substrates of Cytochrome P450 2C19 (AID 899); details: recombinant CYP2C19, luciferin-H EGE luminescence; series mostly up to 57.1 µM; also: nearly all actives have a fitted effect of over 60% in size
Inconclusive results are not listed. The source made the active and inactive calls. Calls follow the shape of the dose curve; as a rule, active = well fitted inhibition curve with a large enough effect; inconclusive = small, poorly fitted or top-dose-only effect; inactive = no such curve, though single readings can be large or run the other way.
Classes used: active, inactive

| molecule_smiles | class_label |
| --- | --- |
| COCCn1c(=O)c(-c2cccc(C#N)c2)nc2cnc(OCc3ccccc3)nc21 | inactive |
| CC(C)=CCc1c(O)cc(O)c2c1O[C@H](c1ccccc1)CC2=O | active |
| COc1cc2cc3c4c(cc(OC)c(OC)c4c2cc1OC)CCN3C | active |
| O=C1C=C(NCCc2cc(Br)c(O)c(Br)c2)C(=O)c2ncccc21 | active |
| COc1ccc2[nH]cc(CCNc3ncnc4ccc(-c5ccccc5OC)cc34)c2c1 | active |
| COc1ccc2[nH]cc(CCNc3ncncc3-c3ccccc3OC)c2c1 | active |
| CCNc1ncc2nc(CCc3ccccc3)c(=O)n(C3CC3)c2n1 | active |
| COc1cc2cc(Oc3ccc4ccc(=O)oc4c3)c(=O)oc2cc1O | inactive |

----------
Listed compounds paired with reported Potency
target: Cytochrome P450 1A2 (Homo sapiens); experiment: p450-cyp1a2 (AID 410); details: recombinant CYP1A2, luciferin-ME demethylation, luminescence; series mostly up to 57 µM; also: potency is read from the fitted curve at half-maximal effect
Results filed as inconclusive are left out. Active and inactive are the calls of the source. The call rests on the fitted dose curve.

| molecule_smiles | study_target | Potency |
| --- | --- | --- |
| c1ccc(Nc2nc(-c3cccnc3)nc3ccccc23)cc1 | Cytochrome P450 1A2 (Homo sapiens) | 398 nM (active) |
| CS(=O)(=O)Nc1cccc(-c2nc(Nc3ccncc3)c3ccccc3n2)c1 | Cytochrome P450 1A2 (Homo sapiens) | 631 nM (active) |
| CN(C)C(=O)c1ccc(-c2cc(NCc3ccccc3)ncn2)cc1 | Cytochrome P450 1A2 (Homo sapiens) | 12600 nM (active) |

----------
biological target: Rap guanine nucleotide exchange factor 3 (Homo sapiens); assay: Confirmatory qHTS for antagonist of cAMP-regulated guanine nucleotide exchange factor 3 (EPAC1) (AID 1645880); details: EPAC1 Rap1B-BODIPY-GDP exchange, fluorescence; also: nearly all actives have a fitted effect of over 55% in size
Records with an inconclusive call do not appear. The source made the active and inactive calls. The call rests on the fitted dose curve; in most records, active means well fitted inhibition curve with a large enough effect; inconclusive means small, poorly fitted or top-dose-only effect; inactive means no such curve, though single readings can be large or run the other way.
Classes used: YES for active, NO for inactive

| compound | class_label |
| --- | --- |
| COc1ccc(N2C(=O)CSC2c2cccc(F)c2)c(OC)c1 (stereo not given) | NO |
| Cc1ccc(S(=O)(=O)Nc2cc(C(=O)NCCN3CCCC3)ccc2N2CCCCC2)cc1 | NO |
| COc1cc2c(cc1OC)C1(C)N(CC2)C(C(C)=O)=NN1c1ccc(Cl)cc1 (stereo not given) | NO |
| CC1CN(c2nc(-c3ccccc3)nc3ccccc23)CC(C)O1 (stereo not given) | NO |
| Cc1ccc(-c2nnc(Nc3ccc4c(c3)OCO4)c3ccccc23)cc1S(N)(=O)=O | YES |
| Nc1ccc2cc3[nH]c4cc(N)ccc4c3nc2c1 | NO |
| Cc1nn(-c2c(Cl)cc(Cl)cc2Cl)c(=O)c2ccccc12 | NO |
| Cc1ccc(Cc2cnc(N3C(=N)SC(c4ccccc4)C3=O)s2)cc1 (stereo not given) | NO |
| C[C@H]1CN([C@@H](C)CO)C(=O)CCCn2cc(nn2)CO[C@@H]1CN(C)S(=O)(=O)c1ccc(-n2cccn2)cc1 | NO |
| COC(=O)Cc1c(C)c2ccc(OC(=O)c3ccco3)cc2oc1=O | NO |
